Each entry below lists one item and its recorded normalized growth value.
assay: chemical genetic growth profiling, strain panel (AID 1159580);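 note: tested at 20 µM; growth read once vehicle control cultures reached saturation at 30 °C; 1 = growth at the plate median or of vehicle wells; lower values mean less growth of the strain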; conditions: S. cerevisiae deletion strains, growth OD, locus YGR052W, strain FMP48, hits give low values
The whole screen tested about 5,500 compounds, of which about 2,000 (36%) were called active. Not shown: some 18% with an inconclusive outcome. The list shows a part of the results.
// response body must contain only the number

Completed entries (count: 4):
compound=Cc1cc(C(=O)Nc2ccc(Cl)cc2)nn1C(C)(C)C recordedresult=0.958
compound=COc1cc(NC(=S)NNS(=O)(=O)c2ccc(C)cc2)c(OC)cc1Cl recordedresult=1.06
compound=COc1cc(NC(=S)N(C)C)c(OC)cc1Cl recordedresult=1.07
compound="CSC1=NNC(c2nn(C)cc2Cl)S1 (stereo not given)" recordedresult=0.131

(Q) Return reported normalized growth; argument: `O=S(=O)(Nc1cccc(CCc2ccccn2)c1)c1cc(Cl)c(Cl)cc1Cl`
(A) 1.08

(Q) Name the recorded normalized growth for `Cc1ccc2nc(-c3ccc(Cl)cc3)cn2c1` .
(A) 0.974

(Q) What value of normalized growth has been recorded for this entry: `Cc1ccccc1C(=O)Oc1ccc(C(F)(F)F)cc1[N+](=O)[O-]`
(A) 0.894

(Q) Could you share which normalized growth value was measured for OC1(C(F)(F)F)CC(C23CC4CC(CC(C4)C2)C3)=NN1 (stereo not given) ?
(A) 0.62

(Q) Reported normalized growth for `O=C(Oc1ccc(C(F)(F)F)cc1[N+](=O)[O-])c1cccc(Cl)c1` : what is it?
(A) 0.124

(Q) Find the recorded normalized growth belonging to `N#Cc1ccc(S(=O)(=O)Nc2ccccc2Oc2ccc(Cl)cc2Cl)cc1` and report it.
(A) 0.985

====

Catalogue of normalized growth readings, one per entry.
assay: chemical genetic growth profiling, strain panel (AID 1159580);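 note: tested at 20 µM; growth read once vehicle control cultures reached saturation at 30 °C; 1 = growth at the plate median or of vehicle wells; lower values mean less growth of the strain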; conditions: S. cerevisiae deletion strains, growth OD, locus YLR102C, strain apc9, hits give low values
Hit rate of the full screen: of about 5,500 compounds, about 2,000 (36%) were called active. Not shown: some 18% with an inconclusive outcome. The list shows a part of the results.

compound="CC1=C(CC(=O)O)c2cc(F)ccc2/C1=C\\c1ccc(S(C)=O)cc1 (configuration not stated)" recordedresult="1.02 (inactive)"
compound="Cc1cccc(C)c1OCC(C)N (configuration not stated)" recordedresult="0.989 (inactive)"
compound=S=c1nc[nH]c2nc[nH]c12 recordedresult="0.978 (inactive)"
compound=CN1CCC(=C2c3ccccc3CC(=O)c3sccc32)CC1 recordedresult="1.01 (inactive)"
compound="CCOC(=O)C(=O)C1(C(=O)OCC)Oc2cc(OC)cc(OC)c2C(=O)C1c1ccccc1 (configuration not stated)" recordedresult="0.962 (inactive)"

(Q) Record request: normalized growth value, item CC(=O)NC1SCCC1=O (configuration not stated)
(A) 1.01 (inactive)

(Q) Given the entry `O=C(O)c1cc2ccccc2[nH]1` , report its measured normalized growth.
(A) 1.02 (inactive)

====

experiment: chemical genetic growth profiling, strain panel (AID 1159580);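 note: tested at 20 µM; growth read once vehicle control cultures reached saturation at 30 °C; 1 = growth at the plate median or of vehicle wells; lower values mean less growth of the strain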; conditions: S. cerevisiae deletion strains, growth OD, locus YGL078C, strain dbp3, hits give low values
In all, about 5,500 compounds went through this assay and about 2,000 (36%) were called active. Inconclusive results (about 18%) are left out. The list shows a part of the results.
reportedProperty: normalized growth
Please give the numeric answer without any surrounding text.

Solved entries:
compound="CC1=C(CC(=O)O)c2cc(F)ccc2/C1=C\\c1ccc(S(C)=O)cc1 (stereo unspecified)" recordedresult=1.02
compound="CC(NCCc1ccc(O)cc1)C(O)c1ccc(O)cc1 (stereo unspecified)" recordedresult=0.984

(Q) Which measured normalized growth value corresponds to `CCOC(=O)C(C)(C)Oc1ccc(Cl)cc1` ?
(A) 1.01

(Q) normalized growth for `COc1cc(NS(=O)(=O)c2ccc(N)cc2)nc(OC)n1` ?
(A) 0.985

(Q) What measured normalized growth goes with CNC(C)[C@H](O)c1ccccc1 (stereo partly specified) ?
(A) 0.994

(Q) // normalized growth lookup, key: CO[C@H]1[C@H](O)[C@H](O[C@H]2CC[C@]3(C)C4CC[C@]5(C)C(C6=CC(=O)OC6)CC[C@]5(O)C4CC[C@@H]3C2)O[C@@H](C)[C@@H]1O (stereo partly specified)
(A) 1

(Q) Bench note: what normalized growth did CCCCCCCCNC(C)C(O)c1ccc(SC(C)C)cc1 (stereo unspecified) show?
(A) 0.902

(Q) What normalized growth value was documented for this compound, CC(Oc1ccccc1)C(=O)N[C@@H]1C(=O)N2[C@@H]1SC(C)(C)[C@@H]2C(=O)O (stereo partly specified) ?
(A) 1.02

(Q) Give its normalized growth value. Item: CC(N)C(=O)OC(C)(C)Cc1ccc(Cl)cc1 (stereo unspecified)
(A) 0.983

(Q) GET /values?readout=normalized growth&item= `CN[C@@H](C)[C@@H](O)c1ccccc1`
(A) 0.996

(Q) Which normalized growth is listed for O=C(O)C1(O)C[C@@H](O)C(O)[C@H](O)C1 (stereo partly specified) ?
(A) 0.998
